Each recorded value in this set is attributed to paper PMC7986777.

Assayed Target: VIM-2 (Pseudomonas aeruginosa, UniProt Q9K2N0)
Run Description: fluorescent cephalosporin
Conditions Used: read-out: VIM-2 IC50; […] min pre-incubation, FC5 substrate, HEPES
pIC50: −log10 of the molar value.
Measurement Name: pIC50

A selection of reference data follows.
Smiles Data | pIC50
O=C(O)c1cccc(C(=O)O)n1 | 5.36
O=C(Cc1ccccc1)N[C@@H]1C(=O)N2C(C(=O)O)=C(CSc3cccc4cccnc34)CS[C@H]12 | 5.44

[A] O=C(Cc1ccccc1)N[C@@H]1C(=O)N2C(C(=O)O)=C(CSc3cccc4cccnc34)CS(=O)(=O)[C@H]12
[B] O=C(Cc1ccccc1)N[C@@H]1C(=O)N2C(C(=O)O)=C(COC(=O)c3cccc(C(=O)O)n3)CS(=O)(=O)[C@H]12
Request: Task for the reader: decide whether A or B has the larger pIC50. In your reply, give the label of the chosen option.
Response: A
(A: 5.38, B: 4.97)

====

List of IC50 tested on NDM-1 (Klebsiella pneumoniae, UniProt C7C422).
Sequence (C7C422 29-270, looked up): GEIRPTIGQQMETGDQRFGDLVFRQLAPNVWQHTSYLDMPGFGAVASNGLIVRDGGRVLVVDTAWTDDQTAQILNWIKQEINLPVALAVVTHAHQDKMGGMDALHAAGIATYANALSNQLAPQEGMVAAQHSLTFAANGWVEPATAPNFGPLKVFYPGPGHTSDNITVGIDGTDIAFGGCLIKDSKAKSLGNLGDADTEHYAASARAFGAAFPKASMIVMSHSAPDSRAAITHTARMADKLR
Measurement Name: IC50 (nM)

A selection of reference data follows.
Molecule | Assayed Target | Output Unit | IC50
O=C(Cc1ccccc1)N[C@@H]1C(=O)N2C(C(=O)O)=C(CSc3cccc4cccnc34)CS(=O)(=O)[C@H]12 [compound 8] | NDM-1 (Klebsiella pneumoniae, UniProt C7C422) | nM | 8470
Sc1cccc2cccnc12 [8-TQ] | NDM-1 (Klebsiella pneumoniae, UniProt C7C422) | nM | 2990
O=C(Cc1ccccc1)N[C@@H]1C(=O)N2C(C(=O)O)=C(COC(=O)c3cccc(C(=O)O)n3)CS(=O)(=O)[C@H]12 [compound 15] | NDM-1 (Klebsiella pneumoniae, UniProt C7C422) | nM | 18800
O=C(Cc1ccccc1)N[C@@H]1C(=O)N2C(C(=O)O)=C(COC(=O)c3cccc(C(=O)O)n3)CS[C@H]12 [compound 13] | NDM-1 (Klebsiella pneumoniae, UniProt C7C422) | nM | 2130

[1] O=C(Cc1ccccc1)N[C@@H]1C(=O)N2C(C(=O)O)=C(CSc3cccc4cccnc34)C[S+]([O-])[C@H]12 (stereo partly drawn) [compound 7]
[2] O=C(Cc1ccccc1)N[C@@H]1C(=O)N2C(C(=O)O)=C(COC(=O)c3cccc(C(=O)O)n3)C[S+]([O-])[C@H]12 (stereo partly drawn) [compound 14]
Request: Would you kindly point out which of 1 and 2 has the smaller IC50 figure? In your reply, give the label of the chosen option.
Response: 2

====

Assayed Target: VIM-2 (Pseudomonas aeruginosa, UniProt Q9K2N0)
Run Description: fluorescent cephalosporin
Conditions Used: read-out: VIM-2 IC50; […] min pre-incubation, FC5 substrate, HEPES
pIC50: −log10 of the molar value.
Measurement Name: pIC50

Molecule | Measurement Name | Val
O=C(Cc1ccccc1)N[C@@H]1C(=O)N2C(C(=O)O)=C(COC(=O)c3cccc(C(=O)O)n3)CS[C@H]12 | pIC50 | 5.73
O=C(Cc1ccccc1)N[C@@H]1C(=O)N2C(C(=O)O)=C(CSc3cccc4cccnc34)C[S+]([O-])[C@H]12 (stereo partly shown) | pIC50 | 5.20

[A] O=C(Cc1ccccc1)N[C@@H]1C(=O)N2C(C(=O)O)=C(COC(=O)c3cccc(C(=O)O)n3)C[S+]([O-])[C@H]12 (stereo partly shown)
[B] Sc1cccc2cccnc12
Request: Task for the reader: decide whether A or B has the larger pIC50. In your reply, give the label of the chosen option.
Response: A
(A: 6.12, B: 5.38)
